# Tested on: RXRa DBDmut IVT, anti-RXR (DBD mutation: RXRa K156A/R161A, NR concentration 90 nM)
# testSummary: PBM binding z-score (relative to random genomic background probes); higher = stronger binding; sequences stand for … in GC…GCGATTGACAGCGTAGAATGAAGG
PBM binding z-score values for the sequences below.
// return just the number, without any unit appended

chain: ACAGACAGGTGAGTGAAGGTCACTCAGCTGGACG
quantitativeReadout: -0.197

chain: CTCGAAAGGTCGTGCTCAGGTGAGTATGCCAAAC
quantitativeReadout: 2.18

chain: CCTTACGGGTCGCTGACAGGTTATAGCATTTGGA
quantitativeReadout: 0.55

chain: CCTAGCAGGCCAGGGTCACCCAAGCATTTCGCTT
quantitativeReadout: -0.0851

chain: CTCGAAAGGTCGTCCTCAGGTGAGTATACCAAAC
quantitativeReadout: 2.35

Switching to the query record.
// recorded PBM binding z-score for CGAACTAGGTCAAAGGACAGTAAAAGGCGACGTA : 1.33

* * *

# System: LXRb homodimer (NR concentration 270 nM)
# testSummary: PBM binding z-score (relative to random genomic background probes); higher = stronger binding; sequences stand for … in GC…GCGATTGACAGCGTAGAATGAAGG
# PBM binding z-score listing for each entry below
Respond numerically, and do not add a unit to the figure.

Please review the entries below; each comes with its answer.
chain: AGTCAAAATTCACTAGGTAACGTAAGATTCAGCT
PBM binding z-score: 0.267
//
chain: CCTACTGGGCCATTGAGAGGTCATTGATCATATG
PBM binding z-score: 0.0421
//
chain: CGAACTAGGTCACCTGGACAGTGAAGAGGTTGGA
PBM binding z-score: -0.443
//
chain: CCGACTTGGGCAAAGGTTACCATACTCAGTACGA
PBM binding z-score: -0.6
//
chain: ATATCTAGGTTAGGGTCATTCAGAAAGTAGGGAA
PBM binding z-score: 2.24
//
chain: TCTGCTAGGTCAGTTGGGCAGCTAACGAGCTGCC
PBM binding z-score: 0.28
//
chain: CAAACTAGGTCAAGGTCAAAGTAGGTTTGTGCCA
PBM binding z-score: 1.64
//
chain: ATCGAAAGGTCGAAGGTGACTATACCCACCCGAA
PBM binding z-score: 0.925

# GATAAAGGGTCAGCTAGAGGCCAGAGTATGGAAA with LXRb homodimer (NR concentration 270 nM): PBM binding z-score is 0.0558

# TTACCAAGGTCAGCTGAGGTCGTTGATCCAACTC with LXRb homodimer (NR concentration 270 nM): PBM binding z-score is 0.419

Hey, LXRb homodimer (NR concentration 270 nM) data for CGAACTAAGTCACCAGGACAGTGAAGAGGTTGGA : PBM binding z-score came out at -0.234

Measured on LXRb homodimer (NR concentration 270 nM), ATATGTAGGCTAGGGTCATTCAGAAAGTAGGGAA has a documented PBM binding z-score of 0.611

* * *

# System: THRa homodimer (NR concentration 90 nM)
# testSummary: PBM binding z-score (relative to random genomic background probes); higher = stronger binding; sequences stand for … in GC…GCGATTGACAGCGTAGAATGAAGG
Would you mind labelling by PBM binding z-score? At or over 0.8 is MET, under is NOT MET.

chain: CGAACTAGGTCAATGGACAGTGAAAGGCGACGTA
answerLabel: NOT MET

chain: CGACCTAGGTCACCAGGACAGTGAAGAGGTTGGA
answerLabel: MET

chain: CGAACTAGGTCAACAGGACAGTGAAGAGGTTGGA
answerLabel: NOT MET

chain: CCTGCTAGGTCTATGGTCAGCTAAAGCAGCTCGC
answerLabel: NOT MET

chain: CGAACTAGGTAACCAGGACAGTGAAGAGGTTGGA
answerLabel: NOT MET

Exam item: decide whether the reported PBM binding z-score for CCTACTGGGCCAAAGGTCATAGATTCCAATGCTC is at least 0.8.
MET

Hello, I need to know if TAGCCTAGGTCATTCAGGGGCCAGAATAGAAAGC has measured PBM binding z-score not below 0.8. Thanks!
NOT MET

Please check the record CAAACTAGGTCACGAAAGGTCAAATTCGAATGAC and state if its PBM binding z-score is at or above 0.8.
MET

Test whether the sequence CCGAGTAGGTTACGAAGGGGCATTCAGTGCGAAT records PBM binding z-score of 0.8 or higher.
NOT MET

Would you say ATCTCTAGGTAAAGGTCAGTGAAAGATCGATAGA shows PBM binding z-score at minimum 0.8?
MET

Values compiled from the supplement of paper PMC6555819.
